test system: HCT-15 colon; assay: NCI tumour cell line growth inhibition, 48 h
Entries and their TGI values follow.
METRIC NAME: TGI (µM)

- COMPOUND: "CC1(C)CCC2(C(=O)O)C(O)CC3(C)C(=CCC4C5(C)CCC(OC6OCC(O)C(O)C6OC6OCC(O)C(O)C6OC6OCC(O)C(OC7OC(CO)C(O)C(O)C7O)C6O)C(C)(C)C5CCC43C)C2C1 (stereo not given)"
  METRIC NAME: "TGI"
  RELATION SIGN: ">"
  READOUT VALUE: 100
- COMPOUND: "Cn1cc(Nc2nccc(-c3ccc4c(c3)CN(C3COC3)CC[C@H]4NC(=O)c3cn(C(C)(C)C)nn3)n2)cn1"
  METRIC NAME: "TGI"
  RELATION SIGN: ">"
  READOUT VALUE: 100
- COMPOUND: "CN1CCN(CCCCCOc2cc(O)c3c(=O)cc(-c4ccccc4)oc3c2)CC1"
  METRIC NAME: "TGI"
  RELATION SIGN: "="
  READOUT VALUE: 4.02
- COMPOUND: "Oc1ccc(I)c2cccnc12"
  METRIC NAME: "TGI"
  RELATION SIGN: ">"
  READOUT VALUE: 100
- COMPOUND: "N=C1C(c2nc3ccccc3c(=O)[nH]2)=C(O)CN1c1cccc(Cl)c1"
  METRIC NAME: "TGI"
  RELATION SIGN: ">"
  READOUT VALUE: 100
- COMPOUND: "O=C(Oc1ccc(C(c2c(O)c3ccccc3oc2=O)c2c(O)c3ccccc3oc2=O)cc1)c1ccc(C(=O)c2ccccc2)cc1"
  METRIC NAME: "TGI"
  RELATION SIGN: "="
  READOUT VALUE: 89.4
- COMPOUND: "CC(=O)OC/C=C\\Cn1ncc(=O)[nH]c1=O"
  METRIC NAME: "TGI"
  RELATION SIGN: "="
  READOUT VALUE: 37.5
- COMPOUND: "C=C(C)C1Cc2c(cc3c(c2O)c(=O)c2ccccc2n3C)O1 (stereo not given)"
  METRIC NAME: "TGI"
  RELATION SIGN: "="
  READOUT VALUE: 9.93
- COMPOUND: "CC(C)N(CCNc1nc(C(Cl)(Cl)Cl)nc2cc(Cl)ccc12)C(C)C"
  METRIC NAME: "TGI"
  RELATION SIGN: "="
  READOUT VALUE: 2.48
- COMPOUND: "CC(O)C1(O)C(O)CC(OC2c3cc4c(c(O)c3[C@@H]3C[C@@]2(C)OC32C=c3cc[nH]c3=N2)C(=O)c2cccc(O)c2C4=O)OC1C (stereo not given in full)"
  METRIC NAME: "TGI"
  RELATION SIGN: "="
  READOUT VALUE: 6.41
- COMPOUND: "CCc1cccc(C(C)C)c1NC(=O)C(=O)Nn1c(=S)[nH]c2ccccc2c1=O"
  METRIC NAME: "TGI"
  RELATION SIGN: ">"
  READOUT VALUE: 100
- COMPOUND: "[CH3][Ge]([CH3])([CH2]CC#N)[S]c1ccccc1"
  METRIC NAME: "TGI"
  RELATION SIGN: "="
  READOUT VALUE: 28.2
- COMPOUND: "COc1c(CC(C)=O)c2ccccc2n1C(C)=O"
  METRIC NAME: "TGI"
  RELATION SIGN: ">"
  READOUT VALUE: 100
- COMPOUND: "CSc1ccccc1NC1=NCCO1"
  METRIC NAME: "TGI"
  RELATION SIGN: ">"
  READOUT VALUE: 100
- COMPOUND: "CCCCCCCCCCCCCCCC(=O)OCC1OC(OCCCC)[C@H](O[C@@H]2OC(C)C(OC(=O)CCC)C(O)C2O)C(O)C1O (stereo not given in full)"
  METRIC NAME: "TGI"
  RELATION SIGN: "="
  READOUT VALUE: 55.7
- COMPOUND: "CC(=O)O[C@H]1[C@@H](OC2CCCC2(c2ccccc2)c2ccccc2)O[N+]([O-])=C[C@@H]1c1ccccc1 (stereo not given in full)"
  METRIC NAME: "TGI"
  RELATION SIGN: "="
  READOUT VALUE: 16.7
- COMPOUND: "C=C1CC[C@@](C)(c2cc(Br)c(C)cc2OC(C)=O)[C@H]1C"
  METRIC NAME: "TGI"
  RELATION SIGN: "="
  READOUT VALUE: 31.3
- COMPOUND: "O=C(CCl)N1CCN(c2ccccc2)CC1"
  METRIC NAME: "TGI"
  RELATION SIGN: "="
  READOUT VALUE: 39.2
- COMPOUND: "O=C1NC(=NCCc2ccccc2F)S/C1=C\\c1ccc2ncccc2c1"
  METRIC NAME: "TGI"
  RELATION SIGN: ">"
  READOUT VALUE: 25
- COMPOUND: "Cc1c(CN2CCOCC2)c(CN2CCOCC2)c(C)n1-c1ccc(Cl)cn1"
  METRIC NAME: "TGI"
  RELATION SIGN: ">"
  READOUT VALUE: 100

* * *

system: NCI-H226 lung; assay: NCI tumour cell line growth inhibition, 48 h
METRIC NAME: TGI

- COMPOUND: "CC(=O)Nc1ccc2cc(C#N)c(=O)[nH]c2n1"
  METRIC NAME: "TGI"
  READOUT VALUE: "> 100 µM"
- COMPOUND: "N#Cc1c(-c2ccccc2)nc(SCC(O)CN2CCOCC2)nc1N1CCOCC1 (centres undefined)"
  METRIC NAME: "TGI"
  READOUT VALUE: "> 100 µM"
- COMPOUND: "Cc1cc(C(O)CCCc2ccccc2)cc(C)c1O (centres undefined)"
  METRIC NAME: "TGI"
  READOUT VALUE: "> 100 µM"
- COMPOUND: "[pH]1p2[pH]p3p1p3[pH]2.c1cc[c]([Ge]([c]2ccccc2)[c]2ccccc2)cc1.c1cc[c]([Ge]([c]2ccccc2)[c]2ccccc2)cc1.c1cc[c]([Ge]([c]2ccccc2)[c]2ccccc2)cc1"
  METRIC NAME: "TGI"
  READOUT VALUE: "37.2 µM"
- COMPOUND: "O=C1C=C(Nc2cc(Cl)ccc2Cl)c2ccccc2C1=O"
  METRIC NAME: "TGI"
  READOUT VALUE: "47.8 µM"
- COMPOUND: "CN(C)C/C=C/C(=O)Nc1ccc(C(=O)Nc2cccc(Nc3ncc(Cl)c(-c4c[nH]c5ccccc45)n3)c2)cc1"
  METRIC NAME: "TGI"
  READOUT VALUE: "0.369 µM"
- COMPOUND: "COc1ccc(NCc2cccc3c(=O)c4ccc(Cl)cc4oc23)cc1"
  METRIC NAME: "TGI"
  READOUT VALUE: "> 100 µM"
- COMPOUND: "O=C(Nc1ccc(C(F)(F)F)cc1[N+](=O)[O-])C(=O)Nn1c(=S)[nH]c2ccccc2c1=O"
  METRIC NAME: "TGI"
  READOUT VALUE: "> 100 µM"
- COMPOUND: "CNc1ccc(C)cc1S(=O)(=O)c1ccccc1[N+](=O)[O-]"
  METRIC NAME: "TGI"
  READOUT VALUE: "> 100 µM"

* * *

test system: RPMI-8226 leukemia; assay: NCI tumour cell line growth inhibition, 48 h

- COMPOUND: "NC(N)=N/N=C/c1c(-c2ccc([N+](=O)[O-])cc2)nc2sc(Cl)cn12"
  TGI: "4 µM"
- COMPOUND: "COC(=O)c1cc(C#N)[nH]c1-c1ccc(Br)s1"
  TGI: "> 73.3 µM"
- COMPOUND: "CN1CC=C(C#CC(C)(C)O)CC1"
  TGI: "> 37.5 µM"
- COMPOUND: "C=C(C)C1Cc2c(cc3c(c2O)c(=O)c2ccccc2n3C)O1 (stereo unspecified)"
  TGI: "9.72 µM"
- COMPOUND: "COC(=O)C1=C(C)NC(CF)=C(C(=O)OC)C1c1cccc2c(=O)c3ccccc3oc12 (stereo unspecified)"
  TGI: "> 100 µM"
- COMPOUND: "COC1(OC)CCC2(C)OC(c3ccccc3)C1O2 (stereo unspecified)"
  TGI: "> 100 µM"
- COMPOUND: "CN1CCC(=C(c2ccc(Cl)cc2)c2ccccn2)CC1"
  TGI: "> 100 µM"
- COMPOUND: "C[C@H]1[C@H]2[C@H](C[C@@]3(C)C4=CC[C@H]5C(C)(C)[C@@H](OC6OCC(O)C(O)C6O)CC[C@@]56C[C@@]46CC[C@]23C)O[C@@]2(O)[C@@H]1OC(C)(C)[C@H]2O (stereo partly specified)"
  TGI: "4.68 µM"
- COMPOUND: "Cn1cc(Nc2nccc(-c3ccc4c(c3)CN(C3COC3)CC[C@H]4NC(=O)c3cn(C(C)(C)C)nn3)n2)cn1"
  TGI: "> 100 µM"
- COMPOUND: "COc1ccc(C(=O)C(c2ccc(OC)cc2)C2(O)C(=O)Nc3c(Cl)cc(Cl)cc32)cc1 (stereo unspecified)"
  TGI: "33.6 µM"
- COMPOUND: "CSc1ccccc1NC1=NCCO1"
  TGI: "> 100 µM"
- COMPOUND: "O=[N+]([O-])c1ccc(C2Nn3c(nnc3-c3cccc([N+](=O)[O-])c3)S2)cc1 (stereo unspecified)"
  TGI: "> 100 µM"
- COMPOUND: "CC(C)(C)OC(=O)NC(Cc1ccc(OC(C)(C)C)cc1)C(=O)N[C@H]1CC[C@H](C(=O)O)C1 (stereo partly specified)"
  TGI: "> 100 µM"
- COMPOUND: "COC(=O)C1=C(N)C2=C(N)Oc3ccccc3C2CC1=C(C#N)C#N (stereo unspecified)"
  TGI: "48.6 µM"
- COMPOUND: "CN(C)CC1CCCC/C1=N\\OC(=O)c1ccccc1 (stereo unspecified)"
  TGI: "> 100 µM"
- COMPOUND: "Oc1ccc(/C=N/NC(=S)Nc2ccccc2)nc1"
  TGI: "> 100 µM"
- COMPOUND: "CCN(CC)CCN1C(=O)c2c(c3c4cccc(Cl)c4n(C4OC(CO)C(OC)C(O)C4O)c3c3[nH]c4c(Cl)cccc4c23)C1=O (stereo unspecified)"
  TGI: "0.00306 µM"
- COMPOUND: "O=C(NCCc1ccccn1)c1ccc2cc(C(=O)N3CC(CCl)c4ccc([N+](=O)[O-])cc43)[nH]c2c1 (stereo unspecified)"
  TGI: "> 100 µM"
- COMPOUND: "C=CC(=O)C#Cc1cnc(OC)nc1OC"
  TGI: "6.93 µM"
- COMPOUND: "COC12OCCN(C)C1=CC(=O)C1N=NCC12 (stereo unspecified)"
  TGI: "> 100 µM"
- COMPOUND: "Cc1ccc(S(=O)(=O)NC(=O)NC(CCCCN)C(=O)O)cc1 (stereo unspecified)"
  TGI: "> 100 µM"

The reported numbers originate from PubChem BioAssay (NCI).
